Ref: patent US8937058B2

biological target: mineralocorticoid receptor (Homo sapiens (Human), UniProt P08235); assay: Antimineralocorticoid action by transactivation test (MDCK luciferase reporter cells); conditions: in-vitro transactivation, 1 nM aldosterone, read-out: Mineralocorticoid receptor Antagonism IC50
Sequence (P08235 whole entry): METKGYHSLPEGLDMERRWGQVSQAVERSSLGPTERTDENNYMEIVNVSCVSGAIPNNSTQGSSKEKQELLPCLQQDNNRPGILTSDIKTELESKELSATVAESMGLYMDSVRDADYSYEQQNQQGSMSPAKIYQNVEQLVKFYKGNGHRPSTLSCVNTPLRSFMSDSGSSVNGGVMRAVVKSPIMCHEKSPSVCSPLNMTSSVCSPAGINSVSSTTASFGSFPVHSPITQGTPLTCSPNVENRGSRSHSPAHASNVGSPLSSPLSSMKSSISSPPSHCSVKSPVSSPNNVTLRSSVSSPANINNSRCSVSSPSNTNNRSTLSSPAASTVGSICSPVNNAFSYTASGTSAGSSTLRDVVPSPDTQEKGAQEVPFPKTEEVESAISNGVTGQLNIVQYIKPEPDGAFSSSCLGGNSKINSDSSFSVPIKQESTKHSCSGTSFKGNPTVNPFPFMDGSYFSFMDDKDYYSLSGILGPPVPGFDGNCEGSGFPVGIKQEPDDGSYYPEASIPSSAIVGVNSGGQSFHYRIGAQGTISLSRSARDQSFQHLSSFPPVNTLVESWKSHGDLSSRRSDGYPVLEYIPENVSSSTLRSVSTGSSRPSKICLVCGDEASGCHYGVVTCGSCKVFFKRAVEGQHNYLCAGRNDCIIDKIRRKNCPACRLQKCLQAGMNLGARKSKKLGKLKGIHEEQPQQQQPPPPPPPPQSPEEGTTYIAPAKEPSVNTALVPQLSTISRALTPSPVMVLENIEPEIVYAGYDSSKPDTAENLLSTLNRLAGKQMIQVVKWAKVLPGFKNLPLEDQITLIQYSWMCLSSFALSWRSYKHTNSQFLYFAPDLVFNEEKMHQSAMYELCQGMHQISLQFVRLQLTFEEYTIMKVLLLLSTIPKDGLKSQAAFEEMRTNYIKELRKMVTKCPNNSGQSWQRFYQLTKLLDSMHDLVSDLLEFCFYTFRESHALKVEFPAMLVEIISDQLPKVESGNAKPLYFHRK
# note: exactly 0.1 µM is not below, so it is Condition not met; use Condition met for IC50 strictly under it

Here's what some known entries look like.
1. CC[C@@H]1CC2=CC(=O)CC[C@@H]2[C@H]2CC[C@@]3(C)[C@@H](CC[C@@]34C=CC(=O)O4)[C@H]12 (stereo in doubt)    Condition not met
2. C=C[C@@H]1CC2=CC(=O)CC[C@@H]2[C@H]2CC[C@@]3(CC)[C@@H](CC[C@@]34C=CC(=O)O4)[C@@H]21 (stereo in doubt) [Example 10A]    Condition not met
3. CC[C@]12CC[C@H]3[C@@H]([C@H](C4CC4)CC4=CC(=O)CC[C@@H]43)[C@@H]1CC[C@@]21C=CC(=O)O1 (stereo in doubt) [Example 11A]    Condition not met

Query: Is the reported IC50 for C=C[C@@H]1CC2=CC(=O)CC[C@@H]2[C@H]2CC[C@@]3(C)[C@@H](CC[C@@]34C=CC(=O)O4)[C@@H]21 (stereo in doubt) strictly below 0.1 µM?
Reply: Condition met

Query: Is the reported IC50 for C[C@]12CC[C@H]3[C@@H]([C@H](C4CC4)CC4=CC(=O)CC[C@@H]43)[C@@H]1CC[C@@]21C=CC(=O)O1 (stereo in doubt) [Example 12A] strictly below 0.1 µM?
Reply: Condition not met
